test: Cmax in healthy human at 50 mg administered as single dose suspension; type: ADME, organism-based; design: dose 50 mg; conditions: in vivo
Measured Property: Cmax (ng/mL)
The answer is to be given in ng/mL; state only the numeric part.

Provide measured Cmax value, entry: C[C@@H]1CCO[C@H]2Cn3cc(C(=O)NCc4ccc(F)cc4F)c(=O)c([O-])c3C(=O)N12.[Na+] [DOLUTEGRAVIR SODIUM]
4560

====

assay: AUC (0-infinity) in healthy human at 5 mg administered as single dose suspension; format: ADME, organism-based; design: dose 5 mg, time infinity; details: plasma
Measured Property: AUC(0-inf) (ng·h/mL)
Field: numeric (ng·h/mL). Do not append units.

Quick one: give measured AUC(0-inf) for C[C@@H]1CCO[C@H]2Cn3cc(C(=O)NCc4ccc(F)cc4F)c(=O)c([O-])c3C(=O)N12.[Na+] [DOLUTEGRAVIR SODIUM]
8870

====

assay: Drug level at 24 hrs in healthy human at 25 mg administered as single dose suspension; format: ADME, organism-based; settings: in vivo, read-out: Drug uptake
Measured Property: concentration at 24 h (ng/mL)
Give the number; ng/mL is assumed, so skip it.

Look up and report measured concentration at 24 h for this entry: C[C@@H]1CCO[C@H]2Cn3cc(C(=O)NCc4ccc(F)cc4F)c(=O)c([O-])c3C(=O)N12.[Na+] [DOLUTEGRAVIR SODIUM]
469

====

assay: Cmax in healthy human at 10 mg, qd for 10 days administered as suspension measured after last dose; format: ADME, organism-based; set-up: dose 10 mg; details: in vivo
Measured Property: Cmax (ng/mL)
State the answer as a number, implicitly in ng/mL.

For the compound C[C@@H]1CCO[C@H]2Cn3cc(C(=O)NCc4ccc(F)cc4F)c(=O)c([O-])c3C(=O)N12.[Na+] [DOLUTEGRAVIR SODIUM] , give its reported Cmax.
1470

====

test: Cmax in healthy human at 50 mg, qd for 10 days administered as suspension measured after last dose; assay type: ADME, organism-based; design: dose 50 mg; details: in vivo
Measured Property: Cmax (ng/mL)
Hi! Could you send only the number? It should be in ng/mL, unit omitted.

Note down Cmax recorded for C[C@@H]1CCO[C@H]2Cn3cc(C(=O)NCc4ccc(F)cc4F)c(=O)c([O-])c3C(=O)N12.[Na+] [DOLUTEGRAVIR SODIUM]
6160

====

assay: Half life in healthy human at 50 mg administered as single dose suspension; assay type: ADME, organism-based; settings: in vivo
Measured Property: half-life (h)
Record the value in h, omitting the unit from your answer.

Name the recorded half-life of the item C[C@@H]1CCO[C@H]2Cn3cc(C(=O)NCc4ccc(F)cc4F)c(=O)c([O-])c3C(=O)N12.[Na+] [DOLUTEGRAVIR SODIUM] in your answer.
14.2

====

experiment: Half life in healthy human at 100 mg administered as single dose suspension; format: ADME, organism-based; conditions: in vivo
Measured Property: half-life (h)
Kindly answer with a numeric value in h, unit omitted.

For the molecule C[C@@H]1CCO[C@H]2Cn3cc(C(=O)NCc4ccc(F)cc4F)c(=O)c([O-])c3C(=O)N12.[Na+] [DOLUTEGRAVIR SODIUM] , give its reported half-life.
14.7

====

experiment: Apparent oral clearance in healthy human at 50 mg administered as single dose suspension; format: ADME, organism-based; details: in vivo
Measured Property: CL/F (mL/min)
Just the number in mL/min, nothing appended.

Could you please provide reported CL/F for C[C@@H]1CCO[C@H]2Cn3cc(C(=O)NCc4ccc(F)cc4F)c(=O)c([O-])c3C(=O)N12.[Na+] [DOLUTEGRAVIR SODIUM] ? Thanks!
11.3

====

experiment: Tmax in healthy human at 5 mg administered as single dose suspension; assay type: ADME, organism-based; settings: in vivo
Measured Property: Tmax
State the result as a value with its unit after it.

Hello, please tell me recorded Tmax for this one: C[C@@H]1CCO[C@H]2Cn3cc(C(=O)NCc4ccc(F)cc4F)c(=O)c([O-])c3C(=O)N12.[Na+] [DOLUTEGRAVIR SODIUM]
30 min

====

assay: Drug level in healthy human at 50 mg, qd for 10 days administered as suspension measured after last dose; format: ADME, organism-based; conditions: in vivo, read-out: Drug uptake
Measured Property: concentration at 240 h (ng/mL)
Form entry: value (ng/mL) — number only.

Kindly indicate its recorded concentration at 240 h. Item: C[C@@H]1CCO[C@H]2Cn3cc(C(=O)NCc4ccc(F)cc4F)c(=O)c([O-])c3C(=O)N12.[Na+] [DOLUTEGRAVIR SODIUM]
1640

====

experiment: Drug level at 24 hrs in healthy human at 50 mg administered as single dose suspension; type: ADME, organism-based; conditions: in vivo, read-out: Drug uptake
Measured Property: concentration at 24 h (ng/mL)
Field: numeric (ng/mL). Do not append units.

Look up and state reported concentration at 24 h for C[C@@H]1CCO[C@H]2Cn3cc(C(=O)NCc4ccc(F)cc4F)c(=O)c([O-])c3C(=O)N12.[Na+] [DOLUTEGRAVIR SODIUM]
1060

====

assay: Half life in healthy human at 5 mg administered as single dose suspension; type: ADME, organism-based; conditions: in vivo
Measured Property: half-life (h)
Number only, in h; omit the unit.

Give the value of half-life reported for the following: C[C@@H]1CCO[C@H]2Cn3cc(C(=O)NCc4ccc(F)cc4F)c(=O)c([O-])c3C(=O)N12.[Na+] [DOLUTEGRAVIR SODIUM]
14.3

====

test: Tmax in healthy human at 50 mg, qd for 10 days administered as suspension measured after last dose; type: ADME, organism-based; details: in vivo
Measured Property: Tmax (h)
The reply should contain only the number, in h.

Give Tmax for C[C@@H]1CCO[C@H]2Cn3cc(C(=O)NCc4ccc(F)cc4F)c(=O)c([O-])c3C(=O)N12.[Na+] [DOLUTEGRAVIR SODIUM]
1

====

experiment: Tmax in healthy human at 100 mg administered as single dose suspension; type: ADME, organism-based; details: in vivo
Measured Property: Tmax (h)
Could you give me the number in h? Just the number is fine.

Supply Tmax value. Item: C[C@@H]1CCO[C@H]2Cn3cc(C(=O)NCc4ccc(F)cc4F)c(=O)c([O-])c3C(=O)N12.[Na+] [DOLUTEGRAVIR SODIUM]
1

====

assay: AUC (0-infinity) in healthy human at 10 mg administered as single dose suspension; type: ADME, organism-based; design: dose 10 mg, time infinity; settings: plasma
Measured Property: AUC(0-inf)

Kindly indicate its recorded AUC(0-inf). Item: C[C@@H]1CCO[C@H]2Cn3cc(C(=O)NCc4ccc(F)cc4F)c(=O)c([O-])c3C(=O)N12.[Na+] [DOLUTEGRAVIR SODIUM]
14600 ng·h/mL

====

assay: Tmax in healthy human at 25 mg administered as single dose suspension; assay type: ADME, organism-based; details: in vivo
Measured Property: Tmax (min)
Give just the number in min; leave the unit off.

For the compound C[C@@H]1CCO[C@H]2Cn3cc(C(=O)NCc4ccc(F)cc4F)c(=O)c([O-])c3C(=O)N12.[Na+] [DOLUTEGRAVIR SODIUM] , give its measured Tmax value.
45

====

test: AUC (0-t) in healthy human at 5 mg administered as single dose suspension; assay type: ADME, organism-based; details: plasma
Measured Property: AUC(0-t) (ng·h/mL)
Use ng·h/mL as the unit, but write only the number.

In one line, give reported AUC(0-t) of the entry C[C@@H]1CCO[C@H]2Cn3cc(C(=O)NCc4ccc(F)cc4F)c(=O)c([O-])c3C(=O)N12.[Na+] [DOLUTEGRAVIR SODIUM] .
8540

====

experiment: AUC (0-tau) in healthy human at 50 mg, qd for 10 days administered as suspension measured after last dose; assay type: ADME, organism-based; details: plasma
Measured Property: AUC tau at 240 h (ng·h/mL)
Quick reminder: number only, in ng·h/mL, skip the unit.

Quote AUC tau at 240 h reported for C[C@@H]1CCO[C@H]2Cn3cc(C(=O)NCc4ccc(F)cc4F)c(=O)c([O-])c3C(=O)N12.[Na+] [DOLUTEGRAVIR SODIUM] please.
76800
